target: Serine/threonine-protein kinase PAK 5 (Homo sapiens); conditions: at 1 µM
Description: GSK_PKIS: PAK5 mean inhibition at 1 uM [Nanosyn]

smiles | inhibition / %
COc1cccc(-c2c[nH]c3c(N/N=C/c4ccncc4)ncnc23)c1 | 0.73
CCN(CC)S(=O)(=O)c1ccc(OC)c(Nc2ncc(-c3ccccc3)o2)c1 | -0.8
c1cc(-c2cnn3nc(N4CCOCC4)ccc23)nc(NC2CC2)n1 | 1.19
O=C(O[C@H]1CN[C@H](C#Cc2cc3ncnc(Nc4ccc(Cc5ccccc5)cc4)c3s2)C1)N1CCOCC1 | 0.17
COc1cc(/C=N/Nc2ncnc3[nH]ncc23)ccc1O | 11.8
CN(C)CCOc1ccc(-c2nc(-c3ccncc3)c(-c3ccc4c(c3)CC/C4=N\O)[nH]2)cc1 | 7.07
